Values were extracted from the supplement of paper PMC10126150.

Test system: ATP;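 note: ATP exposure 15 min at 22 °C before imaging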
method.summary: switch fluorescence ratio, 500 uM ATP over buffer (Cy3 cluster intensity, sum of 5 cycles each) (fold (ratio)); higher = stronger signal-on switching upon ATP binding; sequences stand for … in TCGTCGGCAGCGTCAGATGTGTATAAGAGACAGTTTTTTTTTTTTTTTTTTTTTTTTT…TC
recorded.conditions: aptamer strand: ATP DNA aptamer (quencher-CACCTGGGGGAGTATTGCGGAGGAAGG + anchor), 100 nM annealed; ATP concentration: 500 uM
Mark Condition not met for switch fluorescence ratio values under 1, and Condition met for everything at or above.

As a guide, the following entries are already answered.
- chain.sequence: "ATAGGGGGGG"
  class.name: "Condition met"
- chain.sequence: "TTGTTAGGCT"
  class.name: "Condition met"
- chain.sequence: "TGAAGTTCTT"
  class.name: "Condition not met"
- chain.sequence: "GAGCCCAGGG"
  class.name: "Condition met"
- chain.sequence: "AAGCTTACGG"
  class.name: "Condition met"
- chain.sequence: "AGAGCCTGGG"
  class.name: "Condition met"
- chain.sequence: "CTCTGTAGGC"
  class.name: "Condition met"
- chain.sequence: "AGTTGGTAAT"
  class.name: "Condition not met"
- chain.sequence: "AATATGCTCC"
  class.name: "Condition met"
- chain.sequence: "GATATGAGGG"
  class.name: "Condition met"

State whether the measured switch fluorescence ratio reaches 1, counting equality as reaching it, for `GGTTGGACCA`
Condition not met

State whether the measured switch fluorescence ratio reaches 1, counting equality as reaching it, for `TGAATTGGTG`
Condition met

State whether the measured switch fluorescence ratio reaches 1, counting equality as reaching it, for `CAAGTGCTTG`
Condition met

State whether the measured switch fluorescence ratio reaches 1, counting equality as reaching it, for `AATGGGGGCG`
Condition not met

State whether the measured switch fluorescence ratio reaches 1, counting equality as reaching it, for `AGGGTAGCTA`
Condition not met

State whether the measured switch fluorescence ratio reaches 1, counting equality as reaching it, for `TTTGGACCGA`
Condition met

State whether the measured switch fluorescence ratio reaches 1, counting equality as reaching it, for `AATCCGCGGA`
Condition not met

State whether the measured switch fluorescence ratio reaches 1, counting equality as reaching it, for `ACGGTTTGGC`
Condition not met
